target: Tyrosyl-tRNA synthetase, putative (Trypanosoma cruzi (strain CL Brener)) (UniProt Q4DSP6); assay: Trypanosoma cruzi tyrosyl tRNA synthetase (TcYRS) SOP; type: functional; parameters: scale not given: direction of the effect not stated beside the values; conditions: 30 µM
Sequence (Q4DSP6 as listed by the source): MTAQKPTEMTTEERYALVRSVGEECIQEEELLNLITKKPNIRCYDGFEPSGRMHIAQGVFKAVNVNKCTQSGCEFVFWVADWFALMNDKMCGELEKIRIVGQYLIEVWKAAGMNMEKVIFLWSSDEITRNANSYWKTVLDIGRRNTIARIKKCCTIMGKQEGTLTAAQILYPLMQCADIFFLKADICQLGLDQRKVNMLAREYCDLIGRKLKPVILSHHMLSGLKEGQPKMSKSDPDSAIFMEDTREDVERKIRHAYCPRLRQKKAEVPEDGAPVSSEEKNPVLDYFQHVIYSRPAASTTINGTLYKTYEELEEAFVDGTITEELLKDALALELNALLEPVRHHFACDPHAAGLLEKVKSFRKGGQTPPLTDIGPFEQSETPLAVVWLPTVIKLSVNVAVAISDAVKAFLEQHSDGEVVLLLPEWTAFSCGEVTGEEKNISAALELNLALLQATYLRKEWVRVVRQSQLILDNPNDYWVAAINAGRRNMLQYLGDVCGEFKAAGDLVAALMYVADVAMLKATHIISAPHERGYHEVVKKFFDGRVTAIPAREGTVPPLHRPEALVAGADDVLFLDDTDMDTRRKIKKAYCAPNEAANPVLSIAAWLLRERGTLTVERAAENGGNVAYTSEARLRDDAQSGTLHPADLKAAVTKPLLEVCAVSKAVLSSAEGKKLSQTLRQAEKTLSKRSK
Value type: Percent Effect (%)

1) Cc1nn(C)c(N(C)C)c1CNC(C)Cc1c(F)cccc1F (stereo unspecified)    23.5
2) O=C1CC[C@@H]2[C@@H](CCN2Cc2ccncc2)N1c1ccccc1    7.5
3) Cc1oc(-c2ccco2)nc1CC(=O)N1CCN(CC(C)(C)O)CC1    9.41
4) COc1cc(OC)c(C2SCC(=O)Nc3n[nH]cc32)cc1OC (stereo unspecified)    2.6
5) CN(C)[C@@H]1CCN(C(=O)Cc2ccc(F)cc2)[C@H]1Cc1cnn(C)c1    6.41
6) Cc1noc(C)c1CN1CCCC2(CCN(C(=O)CC3CC3)C2)C1 (stereo unspecified)    -10

The origin of these recorded values is ChEMBL document CHEMBL3988442.
